The next entries give measured Kd for Serine/threonine-protein kinase A-Raf (Homo sapiens).
Active and inactive are the calls of the source.
Observed Property: Kd

>  <Compound>
CC(C)CC(=O)Nc1[nH]nc2c1CN(C(=O)C1CCN(C)CC1)C2(C)C [PHA-793887]

>  <Experimental Value>
> 30 µM (inactive)

$$$$
>  <Compound>
COCCN1CCN(Cc2ccc(-c3n[nH]c4c3C(=O)c3c(NC(=O)NN5CCOCC5)cccc3-4)cc2)CC1 [RGB-286638]

>  <Experimental Value>
> 30 µM (inactive)

$$$$
>  <Compound>
COc1cc(Nc2ncc(F)c(Nc3ccc4c(n3)N(COP(=O)(O)O)C(=O)C(C)(C)O4)n2)cc(OC)c1OC [FOSTAMATINIB]

>  <Experimental Value>
> 30 µM (inactive)

$$$$
>  <Compound>
O=C(Nc1ccc(OC(F)(F)F)cc1)c1sccc1NCc1ccnc2ccccc12 [OSI-930]

>  <Experimental Value>
> 30 µM (inactive)

$$$$
>  <Compound>
COc1ccc2c(OCc3nnc4ccc(-c5ccccc5)nn34)ccnc2c1 [AMG-208]

>  <Experimental Value>
> 30 µM (inactive)

$$$$
>  <Compound>
Cn1cnc2c(F)c(Nc3ccc(Br)cc3Cl)c(C(=O)NOCCO)cc21 [SELUMETINIB]

>  <Experimental Value>
> 30 µM (inactive)

$$$$
>  <Compound>
CN(C)C/C=C/C(=O)Nc1cc2c(Nc3ccc(F)c(Cl)c3)ncnc2cc1O[C@H]1CCOC1 [AFATINIB]

>  <Experimental Value>
> 30 µM (inactive)

$$$$
>  <Compound>
Cc1cc(-c2cc(OC(=O)c3ccccc3)ccc2Cl)cc2nnc(Nc3ccc(OCCN4CCCC4)cc3)nc12 [TG100-801]

>  <Experimental Value>
> 30 µM (inactive)

$$$$
>  <Compound>
S=C(NCc1ccc2c(c1)OCO2)N1CCN(c2ncnc3c2oc2ccccc23)CC1 [AMUVATINIB]

>  <Experimental Value>
> 30 µM (inactive)

$$$$
>  <Compound>
CC1(COc2ccc3c(c2)ncn3-c2ccc3cccc(N4CCC(N)CC4)c3n2)COC1 [CRENOLANIB]

>  <Experimental Value>
> 30 µM (inactive)

$$$$
>  <Compound>
COc1cc2c(N3CCN(C(=O)Nc4ccc(OC(C)C)cc4)CC3)ncnc2cc1OCCCN1CCCCC1 [TANDUTINIB]

>  <Experimental Value>
> 30 µM (inactive)

$$$$
>  <Compound>
CC[C@@](C)(Nc1ccnc(-c2c[nH]c3ncccc23)n1)C(=O)NCC(F)(F)F [DECERNOTINIB]

>  <Experimental Value>
> 30 µM (inactive)

$$$$
>  <Compound>
CCc1nc(C(N)=O)c(Nc2ccc(N3CCC(N4CCN(C)CC4)CC3)c(OC)c2)nc1NC1CCOCC1 [GILTERITINIB]

>  <Experimental Value>
> 30 µM (inactive)

$$$$
>  <Compound>
COc1cc2c(Oc3ccc4[nH]c(C)cc4c3F)ncnc2cc1OCCCN1CCCC1 [CEDIRANIB]

>  <Experimental Value>
> 30 µM (inactive)

$$$$
>  <Compound>
CNC(=O)c1ccc(Nc2ncc(C(F)(F)F)c(NCc3nccnc3N(C)S(C)(=O)=O)n2)cc1 [DEFACTINIB]

>  <Experimental Value>
> 30 µM (inactive)

$$$$
>  <Compound>
CC(C)(O)CC(=O)NCCn1ccc2ncnc(Nc3ccc(Oc4cccc(C(F)(F)F)c4)c(Cl)c3)c21 [TAK-285]

>  <Experimental Value>
> 30 µM (inactive)

$$$$
>  <Compound>
C=CCN(/C=C1/C(=O)O[C@H](COC)[C@@]2(C)C1=C(O)C(=O)C1=C2[C@H](OC(C)=O)C[C@]2(C)C(=O)CC[C@@H]12)CC=C [SONOLISIB]

>  <Experimental Value>
> 30 µM (inactive)

$$$$
>  <Compound>
Cc1ccc(C(=O)Nc2ccc(Oc3cc4cnn(C)c4cc3-c3cn[nH]c3)c(F)c2)c(=O)n1-c1ccc(F)cc1 [MERESTINIB]

>  <Experimental Value>
> 30 µM (inactive)

$$$$
>  <Compound>
Cn1cc(-c2[nH]c3cc(NC(=O)[C@H](N)C4CCCCC4)cc4c3c2C=NNC4=O)cn1

>  <Experimental Value>
> 30 µM (inactive)

$$$$
>  <Compound>
COc1cccc2cc(-c3nc([C@H]4CC[C@H](C(=O)O)CC4)n4ncnc(N)c34)[nH]c12 [OSI-027]

>  <Experimental Value>
> 30 µM (inactive)

$$$$
>  <Compound>
CN1CCN(c2nc(C3=C(c4c[nH]c5ccccc45)C(=O)NC3=O)c3ccccc3n2)CC1 [SOTRASTAURIN]

>  <Experimental Value>
> 30 µM (inactive)

$$$$
>  <Compound>
Cc1c(NC(=O)OC[C@@H]2COCCN2)cn2ncnc(Nc3ccc4c(cnn4Cc4cccc(F)c4)c3)c12 [AC-480]

>  <Experimental Value>
> 30 µM (inactive)

$$$$
>  <Compound>
Cn1c(=O)c(F)c(Nc2ccc(I)cc2F)c2c(=O)n(C[C@@H](O)CO)cnc21 [TAK-733]

>  <Experimental Value>
> 30 µM (inactive)

$$$$
>  <Compound>
C[C@@H]1COC(Nc2ccc3ncnc(Nc4ccc(OCc5nccs5)c(Cl)c4)c3c2)=N1 [VARLITINIB]

>  <Experimental Value>
> 30 µM (inactive)

$$$$
>  <Compound>
COc1cc(F)c(F)c(Nc2ccc(I)cc2F)c1NS(=O)(=O)C1(C[C@H](O)CO)CC1 [REFAMETINIB]

>  <Experimental Value>
> 30 µM (inactive)

$$$$
>  <Compound>
O=C(NC[C@H](O)CO)c1ccncc1Nc1ccc(I)cc1F [PIMASERTIB]

>  <Experimental Value>
> 30 µM (inactive)

$$$$
>  <Compound>
COc1cc2ncnc(Nc3ccc(O)cc3)c2cc1OC [WHI-P131]

>  <Experimental Value>
> 30 µM (inactive)

$$$$
>  <Compound>
COc1cccc(Nc2ncnn3ccc(CN4CC[C@@H](N)[C@H](O)C4)c23)c1 [BMS-690514]

>  <Experimental Value>
> 30 µM (inactive)

$$$$
>  <Compound>
O=S(=O)(c1cccc2c(O)nccc12)N1CCCNCC1 [HYDROXYFASUDIL]

>  <Experimental Value>
> 30 µM (inactive)

$$$$
>  <Compound>
O=C(O)c1ccc2c(c1)nc(Nc1cccc(Cl)c1)c1ccncc12 [SILMITASERTIB]

>  <Experimental Value>
> 30 µM (inactive)

$$$$
>  <Compound>
O[C@H]1CC[C@H](Nc2ncc3nc(Nc4c(F)cc(F)cc4F)n([C@H]4CCOC4)c3n2)CC1 [TANZISERTIB]

>  <Experimental Value>
> 30 µM (inactive)

$$$$
>  <Compound>
NC(=O)c1ccc(N(C(N)=O)c2c(F)cccc2F)nc1-c1ccc(F)cc1F [VX-702]

>  <Experimental Value>
> 30 µM (inactive)

$$$$
